Molecular target: T1, TIAM2, Q8IVF5
T1 sequence (Q8IVF5 885-986, limits assumed, looked up): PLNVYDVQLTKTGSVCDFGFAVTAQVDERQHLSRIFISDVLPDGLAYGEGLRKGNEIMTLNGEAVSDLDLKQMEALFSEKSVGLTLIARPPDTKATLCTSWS
Assay: holdup assay
Design: key: below the threshold = too weak to quantify, mostly under pKd 3.1 to 4
Details: plain residues with an end cap or a label only (N-terminal biotin on a linker: ado-ado)
Property name: pKd

{"columns": ["Binder", "Result"],
 "data": [
  ["GEDRSPPTAL [MKNK1, Q9BUB5]", "below the threshold"],
  ["EPQYQPGENL [SRC, P12931]", "below the threshold"],
  ["EIPAQSPTCV [FZD10, Q9ULW2]", 3.7],
  ["ELSATVTTDC [TRIP6, Q15654]", "below the threshold"],
  ["RQKEVRESKC [SCN8A, Q9UQD0]", 4.02],
  ["REEPDHSTEV [CCRL2, O00421]", "below the threshold"],
  ["GTGYDRKDYV [CLDN3, O15551]", "below the threshold"],
  ["AAVENKVTDL [PLXNB1, O43157]", "below the threshold"]
]}
